assay_text: Drug level in blood of mouse LLC allografted in mouse at 100 mg/kg, ip
Format: ADME, organism-based
condition_description: in vivo, read-out: Drug uptake
outcome_measure: concentration (µM)
Answers are plain numbers, in µM.

Exercise: Recall and state the measured concentration for N=C(N)c1ccc(CNC(=O)[C@H](CO)NC(=O)[C@@H](CO)NS(=O)(=O)Cc2ccccc2)cc1 .
Solution: 1010

----------
target_of_assay: Tissue-type plasminogen activator (Homo sapiens, UniProt P00750)
Sequence (P00750 whole entry): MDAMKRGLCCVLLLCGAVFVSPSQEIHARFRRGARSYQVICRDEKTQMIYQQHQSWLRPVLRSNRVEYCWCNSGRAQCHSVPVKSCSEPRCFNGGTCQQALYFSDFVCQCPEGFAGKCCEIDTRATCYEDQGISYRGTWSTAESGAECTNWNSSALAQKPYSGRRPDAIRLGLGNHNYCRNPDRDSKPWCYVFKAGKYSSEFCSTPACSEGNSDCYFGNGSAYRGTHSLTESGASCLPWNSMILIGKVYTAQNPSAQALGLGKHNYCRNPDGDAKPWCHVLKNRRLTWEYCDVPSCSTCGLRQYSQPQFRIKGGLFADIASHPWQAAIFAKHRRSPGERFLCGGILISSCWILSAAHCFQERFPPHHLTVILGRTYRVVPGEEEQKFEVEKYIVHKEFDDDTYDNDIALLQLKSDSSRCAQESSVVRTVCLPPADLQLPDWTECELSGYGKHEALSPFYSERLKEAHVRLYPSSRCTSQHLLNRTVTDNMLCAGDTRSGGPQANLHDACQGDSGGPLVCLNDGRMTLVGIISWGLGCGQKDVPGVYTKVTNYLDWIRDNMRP
assay_text: Inhibition of tPA (unknown origin)
outcome_measure: pKi
One number for each entry, as −log10 of the molar value.

Exercise: Give pKi for the following compound: CCOC(=O)N1CCN(C(=O)[C@H](Cc2cccc(C(=N)N)c2)NS(=O)(=O)c2c(C(C)C)cc(C(C)C)cc2C(C)C)CC1
Solution: 5.60

----------
target_of_assay: Coagulation factor X (Homo sapiens, UniProt P00742)
Sequence (P00742 41-179 limits assumed): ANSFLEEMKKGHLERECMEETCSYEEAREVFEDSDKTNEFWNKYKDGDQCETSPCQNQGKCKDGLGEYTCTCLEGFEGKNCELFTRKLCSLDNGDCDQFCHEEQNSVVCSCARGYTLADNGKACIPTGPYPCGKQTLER
Sequence (P00742 235-488 limits assumed): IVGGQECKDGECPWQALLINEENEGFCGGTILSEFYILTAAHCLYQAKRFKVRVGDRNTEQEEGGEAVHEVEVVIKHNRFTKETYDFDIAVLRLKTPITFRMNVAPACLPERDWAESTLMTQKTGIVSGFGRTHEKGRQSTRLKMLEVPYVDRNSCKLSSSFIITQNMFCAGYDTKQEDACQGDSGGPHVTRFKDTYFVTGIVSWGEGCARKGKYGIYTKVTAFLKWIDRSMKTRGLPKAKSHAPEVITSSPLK
assay_text: Inhibition of factor 10a (unknown origin)
outcome_measure: Ki (nM)
One number for each entry, in nM.

Exercise: Provide one value: measured Ki of CCOC(=O)N1CCN(C(=O)[C@H](Cc2cccc(C(=N)N)c2)NS(=O)(=O)c2c(C(C)C)cc(C(C)C)cc2C(C)C)CC1
Solution: 980

----------
target_of_assay: Prothrombin (Homo sapiens)
assay_text: Inhibition of thrombin (unknown origin)
outcome_measure: Ki

Exercise: Report value only: Ki, Prothrombin (Homo sapiens), CCOC(=O)N1CCN(C(=O)[C@H](Cc2cccc(C(=N)N)c2)NS(=O)(=O)c2c(C(C)C)cc(C(C)C)cc2C(C)C)CC1
Solution: 0.5 µM

----------
assay_text: Drug level in blood of GFP-fused mouse CT26 cells allografted in Balb/c mouse at 11.3 mg/kg, ip administered daily for 15 days
Assay type: ADME, organism-based
condition_description: read-out: Drug uptake
Positions of bridges follow the written chain, without caps; N, C: chain ends. Residues, ends and D or L forms follow the SMILES beside them.
outcome_measure: concentration at 360 h (µM)
Answers are plain numbers, in µM.

Exercise: Using the record for CC[C@H](C)[C@@H]1NC(=O)[C@H](Cc2ccc(O)cc2)NC(=O)[C@H](CCCNC(=N)N)NC(=O)[C@H](CO)NC(=O)[C@H](Cc2ccc(O)cc2)NC(=O)[C@H](C)NC(=O)[C@@H]2CCCN2C(=O)[C@@H](N)CSSC[C@@H](C(=O)O)NC(=O)CNC1=O (H-CPAYSRYIGC-OH; disulfide 1-10) , state its measured concentration at 360 h.
Solution: 100

Measured values drawn from ChEMBL document CHEMBL4422663 for this set.
